Entries and their TGI values follow.
Tested on: HS 578T breast
test-summary: NCI tumour cell line growth inhibition, 48 h
Where a SMILES comes first, the peptide text is derived from it. The star is where a group is joined. Boc = CC(C)(C)OC(=O)*

Below: 10 compounds and their reported TGI.
>>> meas_value("O=C(NCCN1CCOCC1)c1ccc2cc(C(=O)N3CC(CCl)c4ccc([N+](=O)[O-])cc43)[nH]c2c1 (stereo unspecified)")
"52.4 µM"
>>> meas_value("NNC(=O)c1ccc[n+](CCc2ccccc2)c1")
"> 100 µM"
>>> meas_value("C[C@H](Cn1ncnn1)Nc1ncc2cc(Oc3ccc(F)cc3F)c(=O)n(C)c2n1")
"> 25 µM"
>>> meas_value("COc1cc(NS(C)(=O)=O)ccc1N1Cc2cnc3ccc4[nH]c(C)cc1c4c23")
"> 100 µM"
>>> meas_value("COCCOCCOCc1n(Cc2ccc3ccccc3n2)c2ccccc2[n+]1Cc1ccc2ccccc2c1")
"3.66 µM"
>>> meas_value("COC(=O)c1c2c(cc3c1CC1(C3)Cc3cc4c(c(C(=O)OC)c3C1)CCCC4)CCCC2")
"> 100 µM"
>>> meas_value("O=C1c2cc3c(cc2CC1Br)CCC3 (stereo unspecified)")
"> 100 µM"
>>> meas_value("CCOc1cc(C2CC(c3ccc(NS(=O)(=O)c4cc([N+](=O)[O-])ccc4C)cc3)=NN2C(=O)c2ccccc2)ccc1O (stereo unspecified)")
"> 100 µM"
>>> meas_value("Nc1c(-c2cccc3ccccc23)c2ccc([N+](=O)[O-])cc2c(=O)n1-c1nc2ccccc2s1")
"20.9 µM"
>>> meas_value("O=c1c2c3c(sc2n2c(-c4cc(-c5ccccc5)nn4-c4ccccc4)nnc2n1Cc1ccccc1)CCCC3")
"> 100 µM"

What the record says about O=C1C(Cl)=C(Nc2ccccc2)C(=O)c2ccccc21 : TGI is 30.5 µM

What the record says about O=c1c2ccccc2nc2[nH][nH]c(=S)n12 : TGI is > 100 µM

What the record says about Brc1cccc(Nc2nc(-c3cccs3)nc3ccc(Br)cc23)c1 : TGI is > 100 µM

What the record says about c1ccc2nc3c(cc4ccccn43)nc2c1 : TGI is > 100 µM

What the record says about O=P(c1ccccc1)(c1ccccc1)N1O[C@@H](c2ccccc2)C=C[C@H]1c1ccccc1 : TGI is 44.6 µM

What the record says about Cn1c([N+](=O)[O-])cnc1/C=C1\Oc2cc(Cl)ccc2C1=O : TGI is > 24.4 µM

What the record says about O=C(NCCCN(CCCCN(CCCNC(=O)C(F)(F)F)Cc1ccccc1)Cc1ccccc1)C(F)(F)F : TGI is 31.4 µM

What the record says about CC1(C)N=C(N)N=C(N)N1c1ccc(OCC(=O)Nc2ccccc2)c(Cl)c1 : TGI is > 100 µM

What the record says about CC(C)(C)OC(=O)NCC(=O)NCC(=O)NCC(=O)NCC(=O)O (Boc-GGGG-OH) : TGI is > 100 µM

What the record says about Cc1csc(-c2cn(C)c3c2C(=O)C(N)=CC3=O)n1 : TGI is > 80.2 µM

What the record says about O=c1cc(N=P(c2ccccc2)(c2ccccc2)c2ccccc2)n(-c2ccccc2)c(=O)n1-c1ccccc1 : TGI is 58 µM

---

System: SW-620 colon
test-summary: NCI tumour cell line growth inhibition, 48 h
assay-readout: TGI

>>> meas_value("Brc1cccc(Nc2nc(-c3cccs3)nc3ccc(Br)cc23)c1")
"> 100 µM"
>>> meas_value("C=CCn1c(=O)ccn(COCCO)c1=O")
"> 100 µM"

Let us move to another entry and its TGI.
What the record says about O=C(NC(Cc1ccc(I)cc1)C(=O)O)c1ccc(I)cc1 (stereo not drawn) : TGI is > 37.3 µM

---

Test system: SNB-75 CNS
test-summary: NCI tumour cell line growth inhibition, 48 h
assay-readout: TGI

Below: 2 molecules and their reported TGI.
>>> meas_value("N#CC(C#N)=CNC(=S)c1ccncc1")
"> 100 µM"
>>> meas_value("CNC(=O)c1cc2c(Oc3ccc(NC(=O)C4(C(=O)Nc5ccc(F)cc5)CC4)cc3)ccnc2cc1OC")
"2.74 µM"

Let us move to another entry and its TGI.
What the record says about NNC(=O)c1ccc[n+](CCc2ccccc2)c1 : TGI is > 100 µM

---

Entries and their TGI values follow.
Test system: SF-268 CNS
test-summary: NCI tumour cell line growth inhibition, 48 h

Below: 3 molecules and their reported TGI.
>>> meas_value("Cn1c([N+](=O)[O-])cnc1/C=C1\\Oc2cc(Cl)ccc2C1=O")
"2.85 µM"
>>> meas_value("COc1ccc2cc(-c3ccc(-c4ccc(C(=N)N)s4)s3)ccc2c1")
"4.97 µM"
>>> meas_value("NNC(=O)c1ccc[n+](CCc2ccccc2)c1")
"> 100 µM"

Let us move to another entry and its TGI.
What the record says about CC(C(=O)n1nnc2ccccc21)N(c1ccccc1)c1ccccc1 (configuration not stated) : TGI is > 100 µM

---

Test system: MDA-MB-435
test-summary: NCI tumour cell line growth inhibition, 48 h
assay-readout: TGI

>>> meas_value("CCN(CCO)CC1COc2ccccc2O1 (stereo not drawn)")
"> 100 µM"
>>> meas_value("CCOC(=O)c1c(-c2ccc(OC)cc2)c(C#N)c(=S)n(C2OC(COC(C)=O)C(OC(C)=O)C(OC(C)=O)C2OC(C)=O)c1C (stereo not drawn)")
"> 100 µM"
>>> meas_value("COc1ccc(CC(C)C(C)Cc2ccc(OC)c(OC)c2)cc1OC (stereo not drawn)")
"> 1400 µM"
>>> meas_value("OB1OCc2cc(/C=C/c3cccc(C(F)(F)F)c3)ccc21")
"> 100 µM"

What the record says about CCOc1cc(C2CC(c3ccc(NS(=O)(=O)c4cc([N+](=O)[O-])ccc4C)cc3)=NN2C(=O)c2ccccc2)ccc1O (stereo not drawn) : TGI is > 100 µM

What the record says about OC(CN1CC1)C(O)CN1CC1 (stereo not drawn) : TGI is > 50 µg/mL

What the record says about CC(=O)N/N=C1\NC(=O)C[C@H]2[C@@H]3CC=C4C[C@@H](OC(C)=O)CC[C@]4(C)[C@H]3CC[C@]12C : TGI is > 100 µM

What the record says about CO[C@]12CC(=O)C3(C(C[C@H]4CC5CC=C6C[C@@H](OC(C)=O)CC[C@]6(OC(C)=O)C5C[C@@]43C)C1)C1C[C@H]3[C@@H]4CC=C5C[C@@H](OC(C)=O)CC[C@]5(OC(C)=O)[C@H]4CC[C@]3(C)C12 (stereo partly drawn) : TGI is > 100 µM

What the record says about c1ccc2nc3c(cc4ccccn43)nc2c1 : TGI is > 100 µM

What the record says about CC(=O)NNc1nc(C)c(C(=O)NNC(=O)C(=O)Nc2nc3ccc([N+](=O)[O-])cc3s2)s1 : TGI is > 100 µM

What the record says about Cc1c2c(n(CCc3ccc(Cl)cc3)c1C)NN=C(C#N)S2(=O)=O : TGI is > 100 µM

What the record says about O=c1c2ccccc2nc2[nH][nH]c(=S)n12 : TGI is > 100 µM

What the record says about CCOC1Oc2ccccc2-c2oc(=O)c(Sc3ccc(C)cc3)cc21 (stereo not drawn) : TGI is > 100 µM

---

Tested on: UO-31 renal
test-summary: NCI tumour cell line growth inhibition, 48 h
assay-readout: GI50

Below: 5 molecules and their reported GI50.
>>> meas_value("c1ccc2nc3c(cc4ccccn43)nc2c1")
"6.25 µM"
>>> meas_value("Cn1cc(-c2csc(-c3cn(C)c4ccccc34)n2)c2cnccc21")
"1.47 µM"
>>> meas_value("CCCCCCCCCCCCCCCCCCNC(=O)[C@H]1CSC(c2cccs2)N1 (some centres not stated)")
"10.3 µM"
>>> meas_value("O=C(/C=C/c1ccccc1)CC(c1ccccc1)N1CCOCC1 (configuration not stated)")
"1.58 µM"
>>> meas_value("C[n+]1c2ccccc2cc2c(CNC(CCCN=C(N)N)C(=O)O)cccc21 (configuration not stated)")
"10.2 µM"

What the record says about COc1ccc(/C=C2/CCc3cc4ccc(OC)cc4[o+]c32)c(O)c1 : GI50 is 2.39 µM

What the record says about OC(CN1CC1)C(O)CN1CC1 (configuration not stated) : GI50 is > 50 µg/mL

---

System: OVCAR-3 ovarian
test-summary: NCI tumour cell line growth inhibition, 48 h
assay-readout: TGI

Below: 2 molecules and their reported TGI.
>>> meas_value("CC(=O)N/N=C1\\NC(=O)C[C@H]2[C@@H]3CC=C4C[C@@H](OC(C)=O)CC[C@]4(C)[C@H]3CC[C@]12C")
"> 100 µM"
>>> meas_value("O=c1oc(-c2ccc(O)c(O)c2)cc2cccc(O)c12")
"> 62.4 µM"

What the record says about CCOc1cc(C2CC(c3ccc(NS(=O)(=O)c4cc([N+](=O)[O-])ccc4C)cc3)=NN2C(=O)c2ccccc2)ccc1O (configuration not stated) : TGI is 36.3 µM

What the record says about OC(c1ccc(Br)cc1)(c1cccs1)C1CC1 (configuration not stated) : TGI is 35.9 µM

What the record says about CC/C(=N\NS(=O)(=O)c1ccccc1)c1ccccc1 : TGI is > 100 µM
